Numbers sourced from patent US20150044346A1.

assay: Headspace GC-MS release of Strecker aldehydes from spiked chocolate on addition of saliva; format: physicochemical; details: spiked chocolate 2 g melted at 37° C., headspace injection
Listed molecules paired with reported Concentration in blank sample (prior addition of saliva)
measurement-kind: Concentration in blank sample (prior addition of saliva)

* CC(C)C=O | 25.4 μg/kg of chocolate
* CCC(C)C=O (stereo not shown) | 354 μg/kg of chocolate
* CC(C)CC=O | 502 μg/kg of chocolate

###

Listed compounds paired with reported Concentration in “release sample” (after addition of saliva)
assay: Headspace GC-MS release of Strecker aldehydes from spiked chocolate on addition of saliva; format: physicochemical; details: spiked chocolate 2 g + saliva 2 mL, 5 min at 37° C., headspace injection
measurement-kind: Concentration in “release sample” (after addition of saliva)

* CC(C)CC=O | 4456 μg/kg of chocolate
* CC(C)C=O | 1103 μg/kg of chocolate
* CCC(C)C=O (stereo not shown) | 3009 μg/kg of chocolate
